- PROTOCOL_TEXT: EBV LMP1-driven NF-kappaB luciferase reporter inhibitors, primary screen, cell-based, luminescence, single point (AID 504558);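 note: 0% = neutral control wells and 100% = reference inhibitor control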
- COND: LMP1-induced NF-kappaB luciferase reporter cells, at 12.5 µM, stronger effect = higher value
The campaign covered roughly 350,000 compounds. About 2,400 (0.69%) were called active. The sample as a whole holds a higher share of actives than the screen did.
REPORTED_METRIC: inhibition (%)
Hi! Could you send only the number? It should be in %, unit omitted.

Previously resolved entries follow.
COc1ccc(-c2c(C#N)cnc(C)c2C)c(O)c1OC: -4.81
O=C(CSc1ncnc2sccc12)NC1CCS(=O)(=O)C1 (stereo unspecified): 5.19
CCOc1ccc(-c2cc(C(=O)N/N=C/c3ccc(O)cc3)c3ccccc3n2)cc1: 58.2
COc1ccc(CN2C(=O)C(CC(=O)NCCCCc3ccccc3)CC(C(=O)N3CCOCC3)=C2C)cc1 (stereo unspecified): -8.73
COc1ccc(C(=O)Nc2cc(C)c(NC(=O)c3ccccc3OC)cn2)cc1: 40.6
COc1ccc(OCC(=O)N2CCN(C(=O)c3cccs3)CC2)cc1: -13.6
Cc1ccccc1C(=O)N1CCN(c2ccc(NC(=O)c3cccs3)cc2)CC1: 49.3
O=C(Nc1ccccc1Cl)/C(Cl)=C(\Cl)S(=O)c1ccccc1 (stereo unspecified): 69.1

Fill in inhibition for record `CNS(=O)(=O)c1ccc2c(c1)[nH]c(=S)n2C`
8.35

Fill in inhibition for record `CCCCCCN1C[C@H](O)[C@@H](n2cc(C3CC3)nn2)C[C@@H]1c1ccc(Cl)cc1`
-2.06

Fill in inhibition for record `O=C(Nc1ccc(N2CCN(C(=O)C3CC3)CC2)cc1)c1cccs1`
4.6

Fill in inhibition for record `COc1ccc(C(=O)N/N=C(\C)CC(=O)Nc2ccc(Cl)cn2)cc1`
-1.25

Fill in inhibition for record `O=C(CCN1CCN(C/C=C/c2ccccc2)CC1)Nc1ccccc1Cl`
5.35

Fill in inhibition for record `C[C@@H]1CN([C@@H](C)CO)C(=O)CCCn2nncc2CO[C@H]1CN(C)Cc1ccc(C(F)(F)F)cc1`
-1.15

Fill in inhibition for record `CCOc1ccc(NC(=O)c2cc(C)nc3ccccc23)cc1`
-0.28
